Source of measurements: ChEMBL document CHEMBL3779871

# Assayed Target: Arachidonate 5-lipoxygenase-activating protein (Homo sapiens) (UniProt P20292)
# Sequence (P20292 whole entry): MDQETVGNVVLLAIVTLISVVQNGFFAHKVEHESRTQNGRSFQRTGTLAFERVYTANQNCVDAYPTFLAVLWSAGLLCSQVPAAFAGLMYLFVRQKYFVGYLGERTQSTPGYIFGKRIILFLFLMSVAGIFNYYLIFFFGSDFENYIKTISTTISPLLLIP
# Protocol Notes: Inhibition of FLAP in Ca+2 ionophore A23187 stimulated human neutrophils assessed as remaining 5-LO activity preincubated for 15 mins at 10 uM measured after 10 mins by RP-HPLC analysis
Endpoint Label: Activity (%)

Use these answered entries as a reference point.
For CC(c1cc2ccccc2s1)N(O)C(N)=O (stereo not given) [ZILEUTON] , write its Activity. 6.7

Give Activity for "Cc1ccccc1COc1ccc(-c2onc(C)c2-c2ccc(Cl)cc2)c(O)c1" 3

Annotate the compound "O=C(O)c1noc(-c2ccc(OCc3nc4ccccc4s3)cc2)c1-c1ccc(Cl)cc1" with its measured Activity. 2

[1] N#Cc1cccc(COc2ccc(-c3onc(C(=O)O)c3-c3ccc(Cl)cc3)cc2)c1
[2] Cc1ccccc1COc1ccc(-c2onc(C(=O)O)c2-c2ccc(Cl)cc2)cc1
Returns: the argument ( 1 or 2 ) having the larger Activity. Bench note: the answer is the label of the chosen record. 2
(2: 13.1%, 1: 6.9%)

---

# Protocol Notes: Acute cytotoxicity against human neutrophils assessed as cell viability measured for 30 mins by trypan blue exclusion method
# Type: cell-based
# Condition Summary: neutrophil, 0.5 h
Endpoint Label: Activity

Example entries and their recorded answers appear below.
Hello, please tell me recorded Activity for this one: "O=C(O)c1noc(-c2ccc(OCc3ccccc3C(F)(F)F)cc2)c1-c1ccc(Cl)cc1" Non-toxic

For the molecule "O=C(O)c1noc(-c2ccc(OCc3cccc(F)c3)cc2)c1-c1ccc(Cl)cc1" , give its measured Activity value. Non-toxic

Read off the recorded Activity for "N#Cc1cccc(COc2ccc(-c3onc(C(=O)O)c3-c3ccc(Cl)cc3)cc2)c1" Non-toxic

Indicate the recorded Activity value for this molecule: "CCOC(=O)c1noc(-c2ccc(OCc3cccc(F)c3)cc2)c1-c1ccc(Cl)cc1" Non-toxic

Give the reported value of Activity for this record: "Cc1ccccc1COc1ccc(-c2onc(C(=O)O)c2-c2ccc(Cl)cc2)cc1" Non-toxic

// below: Activity requested for another molecule
Please list Activity recorded for the molecule "CCOC(=O)c1noc(-c2ccc(OCc3ccc(C)cc3)cc2)c1-c1ccc(Cl)cc1" Non-toxic

---

# Assayed Target: Arachidonate 5-lipoxygenase-activating protein (Homo sapiens)
# Protocol Notes: Inhibition of FLAP in Ca+2 ionophore A23187 stimulated human neutrophils assessed as remaining 5-LO activity preincubated for 15 mins at 10 uM measured after 10 mins by RP-HPLC analysis
Endpoint Label: Activity (%)

Example entries and their recorded answers appear below.
Let me know recorded Activity for "COc1cc(OCc2ccccc2C)ccc1-c1onc(C)c1-c1ccc(Cl)cc1" , thanks. 81.3

Check the records and state Activity for "O=C(O)c1noc(-c2ccc(OCc3ccc4ccccc4n3)cc2)c1-c1ccc(Cl)cc1" 2.7

Please supply the value of reported Activity for the item "Cc1ccc(COc2ccc(-c3onc(C(=O)O)c3-c3ccc(Cl)cc3)cc2)cc1" 15.7

[A] CCOC(=O)c1noc(-c2ccc(OCc3cccc(F)c3)cc2)c1-c1ccc(Cl)cc1
[B] Cc1ccccc1COc1ccc(-c2onc(C)c2-c2ccc(Cl)cc2)cc1
Smaller Activity value, A vs B ? Returns: label corresponding to the selected item. A
(A: 55.3%, B: 102%)

---

# Assayed Target: Arachidonate 5-lipoxygenase-activating protein (Homo sapiens)
# Protocol Notes: Inhibition of FLAP in Ca+2 ionophore A23187 stimulated human neutrophils assessed as remaining 5-LO activity preincubated for 15 mins at 10 uM measured after 10 mins by RP-HPLC analysis
Endpoint Label: Activity (%)

Item "O=C(O)c1noc(-c2ccc(OCc3ccccc3Cl)cc2)c1-c1ccc(Cl)cc1" : provide Activity 5.1

[A] O=C(O)c1noc(-c2ccc(OCc3cccc(F)c3)cc2)c1-c1ccc(Cl)cc1
[B] CCOC(=O)c1noc(-c2ccc(OCc3ccccc3C)cc2)c1-c1ccc(Cl)cc1
[C] O=C(O)c1noc(-c2ccc(OCc3ccccn3)cc2)c1-c1ccc(Cl)cc1
Arrange the 3 entries by Activity so the values rise. Your task in answering is to list the labels in the requested order. C, A, B
(C: 8.4%, A: 19.6%, B: 71.9%)
